B1: CPXM2 (parent)
chain: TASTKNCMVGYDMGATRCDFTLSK

- Variants of: B1
- protocol-notes: protein stability index of a GFP-peptide fusion (GPS, HEK-293T) (PSI 1-6); higher = more stable;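 also: lentivirally expressed fusions sorted by FACS into six bins by GFP to DsRed ratio, PSI derived from sequencing read proportions per bin multiplied by bin number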
- test-conditions: c terminus: a fixed tail appended
assay-readout: protein stability index

A2K    2.04
T21M    1.95
T4H    2
